# target system: SARS-CoV-2 spike protein receptor binding domain (RBD2) (SARS-CoV-2, UniProt P0DTC2 319-537)
# assay method text: SPR, immobilized antibody, RBD injected, 1:1 fit
value type: pKd
Bear in mind: pKd is minus log10 of a mol/L concentration; give just that figure.

Answered cases to consult:
binder	pKd
B04 minibody (scFv-Fc) (Fc fusion) SYVLTQPPSVSVAPGKTARITCGGNNIGIRSVHWYQQKPGQAPVLVIYYDSDRPSGIPERFSGSKSGNTATLTISRVEAGDEADYYCQVWDSSSDHPVFGGGTKLTVLSGGSTITSYNVYYTKLSSSGTQVQLVESGAEVKKPGASVKVSCKASGYTFTRYYMHWVRQAPGQGLEWMGIINPSGGTTSYAQKFQGRVTMTRDTSTSTVYMELSSLRSEDTAVYYCARSFGELTSFDYWGQGTLVTVSS	7.25
E01 minibody (scFv-Fc) (Fc fusion, also called E1) SYELTQPPSVSVAPGETARITCGGDNIGRRHVHWYQQKPGQAPVLVIYDDSDRPSGIPDRFSGSNSGNTATLTIGRVEAGDEADYYCQVWGSSNDPHVFGTGTKLTVLSGGSTITSNNVYYTKLSSSGTQVQLQQWGAGLLKPSETLSLKCAVYGGSFSGYYWGWIRQSTGKGLEWIGEINRSGSTNYNPSLKSRVTISVDTSKNQFSLKLSSVTAADTAVYYCARGGARYYYGSGSYRSTPRPYYFDYWGQGTLVTVSS	7.67
E08 IgG1 (antibody, V domains shown) VH: QVQLVQSGAEVKKPGSSVKVSCKASGGTFSSYAISWVRQAPGQGLEWMGGIIPIFGTANYAQKFQGRVTITADESTSTAYMELSSLRSEDTAVYYCARASGRWLQFWHYYGMDVWGQGTTVTVSS VL: SYVLTQPPSVSVAPGKTARITCGGNNIGWKSVHWYQQKPGQAPVLVVYDDSDRPSGIPERFSGSNSGNTATLTISRVEAGDEADYYCQVWDSSSDLVVFGGGTKLTVL	7.57
B10 minibody (scFv-Fc) (Fc fusion) QSVVTQPPSVSGAPGQRVTISCTGSSSNIGSRTVNWYQQLPGTAPKLLIYANNQRPSGVPDRFSGSKSGTSASLAISGLQSEDEADYYCAAWDDSLNGYVFGTGTKLTVLSGGSTITSYNVYYTKLSSSGTQVQLQQSGPGLVKPSQTLSLTCAISGDSVSSNSATWNWIRQSPSRGLEWLGRTYYGSKWHSDYAVSVKSRITINPDTSKNQISLHLNPVTPEDTAVYYCARGRSYAFDIWDQGTMVTVSS	6.46

Now examine the next entry.
input: Would you mind telling me what pKd value was observed for R26 minibody (scFv-Fc) (Fc fusion) SYELTQPPSVSVAPGQTATITCGGKNIESKSVHWYQQKPGQAPVLVVSDDTDRASGIPERFSGSNSGGAATLTISRVEAGDEADYYCQVWDSPSDHYVFGPGTKLTVLSGGSTITSYNVYYTKLSSSGTQVQLVESGGGVVQPGRSLRLSCAASGFTFSSYAMHWVRQAPGKGLEWVAVISYDGSNKYYADSVKGRFTISRDKAKNTLYLQMNSLRGEDTAVYYCARELSYYDSSGYLRGDWYFDLWGRGTLVTVSS ?
output: 6.05
